test: recombinant barcode read abundance after kanamycin selection (control-corrected) (log10(CPM+1)); higher = more efficient recombination; sequences stand for … in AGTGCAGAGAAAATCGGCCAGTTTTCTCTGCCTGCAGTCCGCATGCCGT…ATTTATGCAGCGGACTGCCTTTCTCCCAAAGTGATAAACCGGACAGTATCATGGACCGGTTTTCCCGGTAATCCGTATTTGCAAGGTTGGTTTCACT; site = the 11-nt target
Hi there, I'd appreciate the recorded recombinant barcode read abundance (log10) for every entry that follows.
Returns: the value as a bare number; no unit string appended.

Inquiry: Recorded recombinant barcode read abundance (log10) for CGGTCCCCTTGGGTTCTAACCTGTTGCCAAT [CGGTCCCCTTG_LTGcore_CT_RTGcore_AT] (site CGGTCCCCTTG) (LTG core: CT, RTG core: AT) , please?
Reply text: 0.133

Inquiry: Reported recombinant barcode read abundance (log10), sequence GGGAGCCAATGGGTTCTAACCTGTTGCTGAG [GGGAGCCCTCA_LTGcore_AA_RTGcore_CT] (site GGGAGCCCTCA) (LTG core: AA, RTG core: CT) : ____
Reply text: 0.235

Inquiry: Requested read-out: recombinant barcode read abundance (log10). Entry: GGGCGGAAATGGGTTCTAACCTGTTGCGGAG [GGGCGGACTCC_LTGcore_AA_RTGcore_CT] (site GGGCGGACTCC) (LTG core: AA, RTG core: CT)
Reply text: 0.131

Inquiry: Sample CGAGCCCCCTGGGTTCTAACCTGTTGCTGGG [CGAGCCCCTCA_LTGcore_CC_RTGcore_CC] (site CGAGCCCCTCA) (LTG core: CC, RTG core: CC) — what was its recombinant barcode read abundance (log10)?
Reply text: 0.0674

Inquiry: Reported recombinant barcode read abundance (log10) for TAGAGGGCTTGGGTTCTAACCTGTTGCGGCA [TAGAGGGCTCC_LTGcore_CT_RTGcore_TG] (site TAGAGGGCTCC) (LTG core: CT, RTG core: TG) : what is it?
Reply text: 1.66

Inquiry: # lookup: recombinant barcode read abundance (log10) of AGGCCTCTGTGGGTTCTAACCTGTTGCCTAG [AGGCCTCCTAG_LTGcore_TG_RTGcore_CT] (site AGGCCTCCTAG) (LTG core: TG, RTG core: CT)
Reply text: 0.11

Inquiry: Can you look up the measured recombinant barcode read abundance (log10) of AAACACATTTGGGTTCTAACCTGTTGCCTAA [AAACACACTAG_LTGcore_TT_RTGcore_TT] (site AAACACACTAG) (LTG core: TT, RTG core: TT) for me?
Reply text: 0.889

Inquiry: Bench note: what recombinant barcode read abundance (log10) did GGACACCGTTGGGTTCTAACCTGTTGCCTAC [GGACACCCTAG_LTGcore_GT_RTGcore_GT] (site GGACACCCTAG) (LTG core: GT, RTG core: GT) show?
Reply text: 0.944

Inquiry: Entry under review: TCTACCCATTGGGTTCTAACCTGTTGCTGAT [TCTACCCCTCA_LTGcore_AT_RTGcore_AT] (site TCTACCCCTCA) (LTG core: AT, RTG core: AT) . Reported recombinant barcode read abundance (log10)?
Reply text: 0.00785

Inquiry: Param item = GAGTCCTTGTGGGTTCTAACCTGTTGCCTCA [GAGTCCTCTAG_LTGcore_TG_RTGcore_TG] (site GAGTCCTCTAG) (LTG core: TG, RTG core: TG) ; retrieve measured recombinant barcode read abundance (log10).
Reply text: 0.235

Inquiry: I have this sequence here, GCGGGACCATGGGTTCTAACCTGTTGCCTTG [GCGGGACCTAG_LTGcore_CA_RTGcore_CA] (site GCGGGACCTAG) (LTG core: CA, RTG core: CA) , and I need its recorded recombinant barcode read abundance (log10).
Reply text: 0.182

Inquiry: What recombinant barcode read abundance (log10) value was documented for this sequence, GCGCGACTGTGGGTTCTAACCTGTTGCTTCA [GCGCGACCTAA_LTGcore_TG_RTGcore_TG] (site GCGCGACCTAA) (LTG core: TG, RTG core: TG) ?
Reply text: 0.0758

Inquiry: I would be grateful if you could share the reported recombinant barcode read abundance (log10) for CGGTCCCCTTGGGTTCTAACCTGTTGCCACT [CGGTCCCCTTG_LTGcore_CT_RTGcore_AG] (site CGGTCCCCTTG) (LTG core: CT, RTG core: AG) .
Reply text: 0.0728

Inquiry: For the sequence AGGCGGGATTGGGTTCTAACCTGTTGCGGAT [AGGCGGGCTCC_LTGcore_AT_RTGcore_AT] (site AGGCGGGCTCC) (LTG core: AT, RTG core: AT) , what recombinant barcode read abundance (log10) is on record?
Reply text: 0.178

Inquiry: Entry GGTGCCCCGTGGGTTCTAACCTGTTGCCGAG [GGTGCCCCTCG_LTGcore_CG_RTGcore_CT] (site GGTGCCCCTCG) (LTG core: CG, RTG core: CT) has what recombinant barcode read abundance (log10)?
Reply text: 0.0559

Inquiry: Would you mind telling me what recombinant barcode read abundance (log10) value was observed for TCTACCCACTGGGTTCTAACCTGTTGCTGGT [TCTACCCCTCA_LTGcore_AC_RTGcore_AC] (site TCTACCCCTCA) (LTG core: AC, RTG core: AC) ?
Reply text: 0.045

Inquiry: Which measured recombinant barcode read abundance (log10) value corresponds to AAACATGTTTGGGTTCTAACCTGTTGCCTAG [AAACATGCTAG_LTGcore_TT_RTGcore_CT] (site AAACATGCTAG) (LTG core: TT, RTG core: CT) ?
Reply text: 0.0409

Inquiry: What recombinant barcode read abundance (log10) value was documented for this sequence, GGGCGGATCTGGGTTCTAACCTGTTGCGGGA [GGGCGGACTCC_LTGcore_TC_RTGcore_TC] (site GGGCGGACTCC) (LTG core: TC, RTG core: TC) ?
Reply text: 0.265

Inquiry: // returns reported recombinant barcode read abundance (log10) for input TTATAAAGTTGGGTTCTAACCTGTTGCCTAG [TTATAAACTAG_LTGcore_GT_RTGcore_CT] (site TTATAAACTAG) (LTG core: GT, RTG core: CT)
Reply text: 0.109

Inquiry: Return reported recombinant barcode read abundance (log10); argument: AGGCCTCCTTGGGTTCTAACCTGTTGCCTCG [AGGCCTCCTAG_LTGcore_CT_RTGcore_CG] (site AGGCCTCCTAG) (LTG core: CT, RTG core: CG)
Reply text: 0.401

Inquiry: Any idea what its recombinant barcode read abundance (log10) is? The sequence is AAACAGTCTTGGGTTCTAACCTGTTGCCTGT [AAACAGTCTAG_LTGcore_CT_RTGcore_AC] (site AAACAGTCTAG) (LTG core: CT, RTG core: AC)
Reply text: 1.66

Inquiry: I'd like to know its recombinant barcode read abundance (log10). The sequence in question is GGCTCCCGGTGGGTTCTAACCTGTTGCGGCC [GGCTCCCCTCC_LTGcore_GG_RTGcore_GG] (site GGCTCCCCTCC) (LTG core: GG, RTG core: GG)
Reply text: 0.203

Just for reference, the supplement of paper PMC11208160 is where these values come from.
